B1: TPR t1 (parent)
chain: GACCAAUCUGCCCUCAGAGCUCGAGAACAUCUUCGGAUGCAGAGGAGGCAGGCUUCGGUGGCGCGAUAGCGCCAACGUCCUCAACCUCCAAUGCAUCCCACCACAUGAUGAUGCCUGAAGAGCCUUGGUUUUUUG

variants of: B1; assay: polymerase ribozyme fitness, log enrichment relative to wild type (log ratio); higher = more active; in vitro selection for triplet polymerase activity
property name: polymerase ribozyme fitness (log ratio)

Completed entries (count: 8):
Reported polymerase ribozyme fitness (log ratio) for C8A C15U G47C G63A C98A C114U G117A U129G was -7.35

Reported polymerase ribozyme fitness (log ratio) for C85G C114U was -3.59

Reported polymerase ribozyme fitness (log ratio) for G44U G110C was -3.92

Reported polymerase ribozyme fitness (log ratio) for C11G C28U C56A G60A U78G was -4.9

Reported polymerase ribozyme fitness (log ratio) for A2C C12G was -1.09

Reported polymerase ribozyme fitness (log ratio) for U14A G61C was -3.93

Reported polymerase ribozyme fitness (log ratio) for U9G C34G was -4.16

Reported polymerase ribozyme fitness (log ratio) for A6C C8G C72A was 0.431

Continuing:
Reported polymerase ribozyme fitness (log ratio) for A2U U9G G47U C88U G113A was -4.58

Reported polymerase ribozyme fitness (log ratio) for U7C A37U C73A was -0.516

Reported polymerase ribozyme fitness (log ratio) for C22A C31G G61A C102A C123G was -7.56

Reported polymerase ribozyme fitness (log ratio) for G45U C72U C88U G113U U129A was -5.57
